# Tested on: AncSZ;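 note: 11-residue human phosphosite peptides and single-mutation variants displayed on the E. coli surface, counted by deep sequencing, each peptide's frequency after selection divided by its frequency in the unselected input library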;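 note: frequency after pTyr selection over input frequency; kinase dosed for 20-30% of maximal phosphorylation in three min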
# Assay Details: phosphorylation enrichment, bacterial display (enrichment ratio); higher = better substrate or ligand; peptides without Tyr show the background
Property Label: phosphorylation enrichment

Illustrative cases are given below, each with its answer.
| Sequence Content | phosphorylation enrichment |
| --- | --- |
| SSWPDYVRPLP [HSPB1_Y54_G53D] | 4.98 |
| PPTFRYERGSR [INPPL1_Y663_YF] | 0.974 |

// batch mode: one phosphorylation enrichment value per listed entry
1. VMTSKYRGGGG [HBA1_Y141_L137M]
2. SVKVYYKKCWF [EPHA7_Y202_S207F]

1. 0.433
2. 1.12
